target: CYP2C9 (Homo sapiens, UniProt P11712); assay: Inje cocktail DDI study: losartan and EXP‐3174 PK, assessment of CYP2C9 activity; conditions: female, human, plasma, oral, t½, + 100 mg ASP8477 once daily (day 23); mean ± SD
Sequence (P11712 whole entry): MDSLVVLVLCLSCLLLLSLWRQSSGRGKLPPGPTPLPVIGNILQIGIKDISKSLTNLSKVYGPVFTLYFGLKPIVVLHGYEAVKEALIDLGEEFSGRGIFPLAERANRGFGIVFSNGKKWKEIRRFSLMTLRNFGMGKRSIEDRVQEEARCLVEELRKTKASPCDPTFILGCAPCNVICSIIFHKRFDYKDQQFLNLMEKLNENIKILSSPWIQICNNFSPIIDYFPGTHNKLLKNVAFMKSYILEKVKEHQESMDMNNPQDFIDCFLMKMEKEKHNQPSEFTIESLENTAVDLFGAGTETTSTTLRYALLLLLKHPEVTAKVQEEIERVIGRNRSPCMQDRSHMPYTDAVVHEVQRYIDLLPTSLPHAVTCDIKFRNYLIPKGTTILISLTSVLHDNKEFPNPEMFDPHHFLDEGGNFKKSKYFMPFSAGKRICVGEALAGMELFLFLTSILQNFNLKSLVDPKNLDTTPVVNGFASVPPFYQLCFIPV
Below, each entry is listed with its recorded half-life.
A complete answer gives the number followed by the unit.

CCCCc1nc(Cl)c(C(=O)O)n1Cc1ccc(-c2ccccc2-c2nn[nH]n2)cc1 [EXP‐3174, losartan acid] ... 720 min

## Task If you can, please state the reported half-life value of CCCCc1nc(Cl)c(CO)n1Cc1ccc(-c2ccccc2-c2nn[nH]n2)cc1 [Losartan, losartan, reference compound] .
## Result 456 min

---

assay: ASP8477 steady‐state plasma PK in the cocktail study; type: in vivo, human; details: female, human, plasma, oral, 60 mg
Outcome Measure: Cmax (ng/mL)
Report as a plain number; the unit ng/mL is understood.

## Task If you can, please state the reported Cmax value of O=C(Nc1ccccc1)C1CCN(C(=O)Oc2cccnc2)CC1 [ASP8477] .
## Result 2000

---

Below, each entry is listed with its recorded Cmax.
biological target: CYP2C9 (Homo sapiens); assay: Inje cocktail DDI study: losartan and EXP‐3174 PK, assessment of CYP2C9 activity; settings: female, human, plasma, oral, Cmax, + 60 mg ASP8477 once daily (day 14); mean ± SD
Report as a plain number; the unit ng/mL is understood.

CCCCc1nc(Cl)c(C(=O)O)n1Cc1ccc(-c2ccccc2-c2nn[nH]n2)cc1 [EXP‐3174, losartan acid] ... 54

--- query ---
## Task If you can, please state the reported Cmax value of CCCCc1nc(Cl)c(CO)n1Cc1ccc(-c2ccccc2-c2nn[nH]n2)cc1 [Losartan, losartan, reference compound] .
## Result 81

---

target: CYP2D6 (Homo sapiens); settings: female, human, plasma, oral, probe dextromethorphan, tmax (median [min‐max]), + 20 mg ASP8477 once daily (day 7)
Below, each entry is listed with its recorded Tmax.
Report as a plain number; the unit h is understood.

COc1ccc2c(c1)[C@]13CCCC[C@@H]1[C@H](C2)N(C)CC3 [Dextromethorphan, dextromethorphan, reference compound] ... 3

--- query ---
## Task If you can, please state the reported Tmax value of CN1CC[C@@]23CCCC[C@@H]2[C@@H]1Cc1ccc(O)cc13 [Dextrorphan, dextrorphan] .
## Result 2

---

target: CYP2D6 (Homo sapiens); details: female, human, plasma, oral, t½, cocktail alone (day 1); mean ± SD
Below, each entry is listed with its recorded half-life.
Report as a plain number; the unit h is understood.

COc1ccc2c(c1)[C@]13CCCC[C@@H]1[C@H](C2)N(C)CC3 [Dextromethorphan, dextromethorphan, reference compound] ... 8

--- query ---
## Task If you can, please state the reported half-life value of CN1CC[C@@]23CCCC[C@@H]2[C@@H]1Cc1ccc(O)cc13 [Dextrorphan, dextrorphan] .
## Result 5.8

---

target: CYP2D6 (Homo sapiens, UniProt P10635); details: female, human, plasma, oral, probe dextromethorphan, Cmax, + 100 mg ASP8477 once daily (day 23); mean ± SD
Sequence (P10635 whole entry): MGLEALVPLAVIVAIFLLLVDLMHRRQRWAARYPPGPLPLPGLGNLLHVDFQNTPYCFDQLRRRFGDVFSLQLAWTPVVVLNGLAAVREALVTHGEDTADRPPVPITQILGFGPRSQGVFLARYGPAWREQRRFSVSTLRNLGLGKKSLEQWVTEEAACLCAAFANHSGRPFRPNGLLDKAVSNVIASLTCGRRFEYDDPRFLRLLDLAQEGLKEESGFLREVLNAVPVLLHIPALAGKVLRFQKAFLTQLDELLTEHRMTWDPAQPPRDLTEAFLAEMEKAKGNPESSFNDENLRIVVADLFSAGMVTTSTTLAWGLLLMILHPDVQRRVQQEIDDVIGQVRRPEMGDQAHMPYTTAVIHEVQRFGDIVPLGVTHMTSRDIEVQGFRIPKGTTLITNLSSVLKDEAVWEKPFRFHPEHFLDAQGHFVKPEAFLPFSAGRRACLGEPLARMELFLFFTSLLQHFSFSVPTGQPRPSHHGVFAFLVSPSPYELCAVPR
Below, each entry is listed with its recorded Cmax.
Report as a plain number; the unit ng/mL is understood.

## Task If you can, please state the reported Cmax value of "CN1CC[C@@]23CCCC[C@@H]2[C@@H]1Cc1ccc(O)cc13" .
## Result 400

## Task If you can, please state the reported Cmax value of COc1ccc2c(c1)[C@]13CCCC[C@@H]1[C@H](C2)N(C)CC3 [Dextromethorphan, dextromethorphan, reference compound] .
## Result 5.6
